system: Escherichia coli; assay: Inhibition of FimC/FimH pilus assembly complex formation in Escherichia coli at 10 uM
READOUT_NAME: inhibition (%)

Some solved entries appear below for comparison.
Entry H-NVSTLHLIS-OH ; inhibition = 18

Entry H-AGGTGTFIS-OH ; inhibition = -3

Entry H-AKGDLLLIS-OH ; inhibition = 3

(P) H-NFFAGHFIS-OH
(Q) H-NTLQLALIS-OH
(R) H-AVLASAWIS-OH
(S) H-GGTVHFKGG-OH
## Task Please list these substances in decreasing order of inhibition. Return value: ordered labels per request.
## Result Q, R, P, S

(A) H-NDLKGLFIS-OH
(B) H-LVGKSHLIS-OH
## Task Looking at recorded values for inhibition, does A or B come in lower? Identify your selection by its label.
## Result B

---

tested on: Escherichia coli; test: Inhibition of FimC/FimH pilus assembly complex formation in Escherichia coli at 200 uM
READOUT_NAME: inhibition (%)

Some solved entries appear below for comparison.
Entry H-AFSKSDFIS-OH ; inhibition = -6

Entry H-ADFFFHSIS-OH ; inhibition = 26

(a) H-TTFTSLSIS-OH
(b) H-NFFAGHFIS-OH
## Task Looking at recorded values for inhibition, does a or b come in lower? Identify your selection by its label.
## Result b

(I) H-NTLQLALIS-OH
(II) H-AGGTGTFIS-OH
(III) H-KGFQLDLIS-OH
(IV) H-KVSFGLFIS-OH
## Task Hey, can you sort those substances up there by inhibition, smallest first? Return value: ordered labels per request.
## Result II, III, IV, I

(A) H-NTGALDSIS-OH
(B) H-KDLASTLIS-OH
## Task Looking at recorded values for inhibition, does A or B come in lower? Identify your selection by its label.
## Result B
(B: 3%, A: 15%)

---

tested on: Escherichia coli; experiment: Inhibition of FimC/FimH pilus assembly complex formation in Escherichia coli at 200 uM
READOUT_NAME: inhibition (%)

Some solved entries appear below for comparison.
The substance H-AKGDLLLIS-OH , when measured on Escherichia coli, yielded inhibition of 14

The substance H-LDSTLAFIS-OH , when measured on Escherichia coli, yielded inhibition of 37

(A) H-TVLDFDFIS-OH
(B) H-NTLQLAIIS-OH
## Task Parameter check: reported inhibition is higher for which label, A or B ? Identify your selection by its label.
## Result B
(B: 40%, A: 5%)

---

test system: Escherichia coli; test: Inhibition of FimC/FimH pilus assembly complex formation in Escherichia coli at 10 uM
READOUT_NAME: inhibition (%)

(P) H-KFGDLASIS-OH
(Q) H-DSTITIRGY-OH
(R) H-AFSKSDFIS-OH
## Task Ranking request: inhibition, max to min, items above. Return value: ordered labels per request.
## Result P, Q, R
(P: 4%, Q: -1%, R: -5%)

(P) H-TTFTSLSIS-OH
(Q) H-ATSFGHWIS-OH
(R) H-NTGALDSIS-OH
(S) H-KGFQLDLIS-OH
(T) H-KKLKLHFIS-OH
## Task Please list these substances in decreasing order of inhibition. Return value: ordered labels per request.
## Result P, Q, T, R, S

(A) H-NGLQGASIS-OH
(B) H-LGSAFLFIS-OH
## Task Looking at recorded values for inhibition, does A or B come in lower? Identify your selection by its label.
## Result A
(A: 10%, B: 19%)

(P) H-NGSDSHFIS-OH
(Q) H-NTGQFAFIS-OH
## Task Parameter check: reported inhibition is higher for which label, P or Q ? Identify your selection by its label.
## Result Q
(Q: 17%, P: 3%)

---

tested on: Escherichia coli; assay: Inhibition of FimC/FimH pilus assembly complex formation in Escherichia coli at 50 uM
READOUT_NAME: inhibition (%)

Entry H-LTFDGTWIS-OH ; inhibition = 7

(1) H-KGFQLDLIS-OH
(2) H-ADFFFHSIS-OH
## Task Looking at recorded values for inhibition, does 1 or 2 come in lower? Identify your selection by its label.
## Result 1
(1: 9%, 2: 16%)

---

system: Escherichia coli; assay: Inhibition of FimC/FimH pilus assembly complex formation in Escherichia coli at 50 uM
READOUT_NAME: inhibition (%)

Some solved entries appear below for comparison.
Entry H-DSTITIRGY-OH ; inhibition = 14

Entry H-TDGQLLWIS-OH ; inhibition = 1

Entry H-LGSAFLFIS-OH ; inhibition = 29

(A) H-TGGAGALIS-OH
(B) H-LDSTLAFIS-OH
## Task Looking at recorded values for inhibition, does A or B come in lower? Identify your selection by its label.
## Result A
(A: 17%, B: 25%)

---

tested on: Escherichia coli; assay: Inhibition of FimC/FimH pilus assembly complex formation in Escherichia coli at 200 uM
READOUT_NAME: inhibition (%)

Entry H-NGFKFTWIS-OH ; inhibition = 2

Entry H-NGSDSHFIS-OH ; inhibition = 12

(I) H-LTFDGTWIS-OH
(II) H-NGLQGASIS-OH
(III) H-NTGQFAFIS-OH
## Task Hey, can you sort those substances up there by inhibition, smallest first? Return value: ordered labels per request.
## Result III, I, II

(A) H-AVLASAWIS-OH
(B) H-LVGKSHLIS-OH
## Task Parameter check: reported inhibition is higher for which label, A or B ? Identify your selection by its label.
## Result A

(1) H-LGSAFLFIS-OH
(2) H-NKGTSDWIS-OH
(3) H-GGTVHFKGG-OH
(4) H-KFGDLASIS-OH
## Task Please list these substances in decreasing order of inhibition. Return value: ordered labels per request.
## Result 1, 2, 4, 3
(1: 40%, 2: 10%, 4: 7%, 3: 3%)

(a) H-TDGQLLWIS-OH
(b) H-KKLKLHFIS-OH
## Task Parameter check: reported inhibition is higher for which label, a or b ? Identify your selection by its label.
## Result b
(b: 39%, a: 4%)

---

test system: Escherichia coli; test: Inhibition of FimC/FimH pilus assembly complex formation in Escherichia coli at 200 uM
READOUT_NAME: inhibition (%)

Entry H-TGGAGALIS-OH ; inhibition = 3

Entry H-ATSFGHWIS-OH ; inhibition = 0

Entry H-DSTITIRGY-OH ; inhibition = 28

(A) H-NVSTLHLIS-OH
(B) H-NDLKGLFIS-OH
## Task Looking at recorded values for inhibition, does A or B come in lower? Identify your selection by its label.
## Result B
(B: 14%, A: 44%)
